assay: CR6086 pharmacokinetics in rats; type: in vivo, rat; conditions: rat, plasma; oral, 3 mg/kg
Measured metric: Cmax (ng/mL)
State the answer as a number, implicitly in ng/mL.

Exam item: What value of measured Cmax is listed for O=C([O-])c1ccc(C2(NC(=O)[C@H]3CC4(CCN3Cc3ccc(C(F)(F)F)cc3)CC4)CC2)cc1.[Na+] ?
Marked response: 3230

----------
assay: CR6086 pharmacokinetics in rats; format: in vivo, rat; conditions: rat, plasma; oral, 3 mg/kg; read-out: AUC24
Measured metric: AUC (ng·h/mL)
State the answer as a number, implicitly in ng·h/mL.

Exam item: What value of measured AUC is listed for O=C([O-])c1ccc(C2(NC(=O)[C@H]3CC4(CCN3Cc3ccc(C(F)(F)F)cc3)CC4)CC2)cc1.[Na+] [CR6086] ?
Marked response: 13700
